Collected IC50 values appear next to each entry.
# TARGET DESC: human TSHR (Homo sapiens)
# METHOD DESCRIPTION: Antagonist activity using TSH-induced cAMP production in human TSHR-stably expressing CHO cells
# CONDITION CONTEXT: human TSH final concentration of 50 ng/mL, cAMP production rate

Some entries whose results are on file:
C[C@H](OC(=O)Nc1cc2c(c(Oc3cccc(C(F)(F)F)n3)c1)N(C)C(=O)C(NC(N)=O)C2)C(F)(F)F (stereo partly shown) | < 3 µM
CN1C(=O)[C@H](Nc2ncc[nH]2)Cc2cccc(Oc3cc(F)ccc3Cl)c21 | 3 to 30 µM
CN1C(=O)[C@H](NC(N)=O)Cc2csc(Cc3cc(F)ccc3Cl)c21 | < 3 µM
CC(c1ccccc1)c1cccc2c1N(C)C(=O)N(CC(N)=O)C2 (stereo not shown) | > 30 µM
Cc1sc2c(c1Cc1cc(F)ccc1Cl)N(C)C(=O)[C@H](NC(N)=O)C2 | < 3 µM
CN1C(=O)C(NC(N)=O)Cc2scc(C(=O)c3cc(F)ccc3Cl)c21 (stereo not shown) | < 3 µM
Cc1ccc2c(c1Oc1cc(F)ccc1Cl)N(C)C(=O)[C@H](NC(=O)N1CCOCC1)C2 | < 3 µM
CN1C(=O)[C@H](NC(N)=O)Cc2cccc(CCc3ccccc3)c21 | 3 to 30 µM
CN1C(=O)C(CC(N)=O)Cc2cc(NC(=O)OC3CCCC3)cc(Oc3ccccc3C#N)c21 (stereo not shown) | < 3 µM
CN1C(=O)C(NC(N)=O)Cc2cc(NC(=O)OC3CCCC3)cc(Oc3ccccc3C#N)c21 (stereo not shown) | < 3 µM

Report IC50 for CN1C(=S)C(NC(N)=O)Cc2cccc(Oc3cc(F)ccc3Cl)c21 (stereo not shown) please. < 3 µM

What IC50 value was documented for this compound, CN1C(=O)[C@H](NC(N)=O)Cc2scc(Cc3cc(F)ccc3Cl)c21 ? < 3 µM

Quick one: IC50 of CC1(c2ccccc2)C(=O)C(C)(C)N2C(=O)[C@H](NC(N)=O)Cc3cccc1c32 (stereo partly shown) ? < 3 µM

Need IC50, item CC(c1cc(F)ccc1Cl)c1nsc2c1N(C)C(=O)[C@H](NC(N)=O)C2 (stereo partly shown) < 3 µM

Using the record for COC(=O)N[C@@H]1Cc2cccc(Oc3cc(F)ccc3Cl)c2N(C)C1=O , report its IC50. < 3 µM

----------
# TARGET DESC: human TSHR (Homo sapiens, UniProt P16473)
# Sequence (P16473 21-764): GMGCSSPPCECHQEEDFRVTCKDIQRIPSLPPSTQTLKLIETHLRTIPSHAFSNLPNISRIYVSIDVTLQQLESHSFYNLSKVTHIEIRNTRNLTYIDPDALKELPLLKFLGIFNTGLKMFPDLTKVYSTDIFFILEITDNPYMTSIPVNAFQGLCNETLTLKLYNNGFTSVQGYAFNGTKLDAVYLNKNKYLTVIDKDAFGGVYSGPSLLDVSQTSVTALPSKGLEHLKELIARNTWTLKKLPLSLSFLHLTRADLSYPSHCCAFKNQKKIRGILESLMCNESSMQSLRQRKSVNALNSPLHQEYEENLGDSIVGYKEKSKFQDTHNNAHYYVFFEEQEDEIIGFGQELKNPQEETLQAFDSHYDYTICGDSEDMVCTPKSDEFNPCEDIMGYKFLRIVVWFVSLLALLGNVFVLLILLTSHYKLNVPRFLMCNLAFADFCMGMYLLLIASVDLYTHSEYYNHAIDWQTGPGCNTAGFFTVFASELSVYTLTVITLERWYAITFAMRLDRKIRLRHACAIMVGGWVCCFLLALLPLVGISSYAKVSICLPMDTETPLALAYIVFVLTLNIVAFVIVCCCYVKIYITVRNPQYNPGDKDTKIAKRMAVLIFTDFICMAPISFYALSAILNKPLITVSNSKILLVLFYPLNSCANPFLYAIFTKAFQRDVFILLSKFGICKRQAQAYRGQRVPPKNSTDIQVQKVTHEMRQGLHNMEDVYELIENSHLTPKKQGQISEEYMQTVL
# METHOD DESCRIPTION: Antagonist activity using TSH-induced cAMP production in human TSHR-stably expressing CHO cells
# CONDITION CONTEXT: human TSH final concentration of 50 ng/mL, cAMP production rate
# Protocol: Measurement of antagonist activity using TSH-induced cAMP production in human TSHR-stably expressing CHO cells as an indicator The gene sequence (reference number NM_000369.2) of human TSHR was inserted into the multiple cloning site of pcDNA3.1(+). […] Then, a fluorescence intensity ratio (measurement wavelength 665 nm/620 nm) was measured using a multi-plate reader (PHERAstar FSX, BMG LABTECH Japan). […]
pIC50: −log10 of the molar value.
OUTCOME MEASURE: pIC50

// solved cases for pIC50 follow
CN1C(=O)C(C(N)=O)Cc2cc(NC(=O)OC3CCCC3)cc(Oc3ccccc3)c21 (stereo not shown) | 4.52 to 5.52
CN1C(=O)[C@H](NC(N)=O)Cc2sc(C#N)c(Cc3cc(F)ccc3Cl)c21 | > 5.52

Which pIC50 is listed for CN1C(=O)[C@H](NS(N)(=O)=O)Cc2cccc(Oc3cc(F)ccc3Cl)c21 ? > 5.52

----------
# TARGET DESC: human TSHR (Homo sapiens)
# METHOD DESCRIPTION: Antagonist activity using TSH-induced cAMP production in human TSHR-stably expressing CHO cells
# CONDITION CONTEXT: human TSH final concentration of 50 ng/mL, cAMP production rate
OUTCOME MEASURE: IC50

// below: answered compounds
NC(=O)NC1Cc2cccc(Oc3cc(F)ccc3Cl)c2-n2ccnc21 (stereo not shown) [Example 28] | 3 to 30 µM
Cc1ccc2cc(NC(N)=O)c(=O)n(C)c2c1Oc1cc(F)ccc1Cl [Example 31] | > 30 µM
CN1C(=O)[C@H](NC(N)=O)Cc2sc(Br)c(Cc3cc(F)ccc3Cl)c21 [Example 39] | < 3 µM
Cc1cnc2n1-c1c(cccc1Oc1cc(F)ccc1Cl)CC2NC(N)=O (stereo not shown) [Example 29] | 3 to 30 µM
CC1(c2ccccc2)CCN2C(=O)[C@H](NC(N)=O)Cc3cccc1c32 (stereo partly shown) [Example 16] | 3 to 30 µM
CN1C(=O)C(NC(N)=O)Cc2cccc(C(C)(C)c3ccccc3)c21 (stereo not shown) [Example 14] | 3 to 30 µM

Report IC50 for CC(C)OC(=O)Nc1cc2c(c(Oc3cccc(C(F)(F)F)n3)c1)N(C)C(=O)C(NC(N)=O)C2 (stereo not shown) [Example 9] please. < 3 µM

----------
Here the recorded pIC50 is given for each entry.
# TARGET DESC: human TSHR (Homo sapiens, UniProt P16473)
# METHOD DESCRIPTION: Antagonist activity using TSH-induced cAMP production in human TSHR-stably expressing CHO cells
# CONDITION CONTEXT: human TSH final concentration of 50 ng/mL, cAMP production rate
pIC50: −log10 of the molar value.

Solved entries:
CN1C(=O)C(OC(N)=O)Cc2cccc(Oc3cc(F)ccc3Cl)c21 (stereo not drawn) | > 5.52
CN1C(=O)C(CC(N)=O)Cc2cc(NC(=O)OC3CCCC3)cc(Oc3ccccc3)c21 (stereo not drawn) | > 5.52
CN1C(=O)[C@H](NC2=NC(=O)CN2)Cc2cccc(Oc3cc(F)ccc3Cl)c21 | 4.52 to 5.52
Cc1ccc2c(c1Oc1cc(F)ccc1Cl)N(C)C(=O)[C@H](NC(N)=O)[C@H]2O (relative stereo) | > 5.52
CN1C(=O)C(NC(N)=O)Cc2cc(NC(=O)OC3CCCC3)cc(Oc3cccc(C(F)(F)F)n3)c21 (stereo not drawn) | > 5.52
CN1C(=O)[C@H](N2CCOC2=O)Cc2cccc(Oc3cc(F)ccc3Cl)c21 | < 4.52

Query (compound): CN1C(=O)[C@H](NC(N)=O)Cc2cccc(C(O)c3ccccc3Cl)c21 (stereo partly drawn) ; field requested: pIC50 < 4.52

What value of measured pIC50 is listed for CN1C(=O)C(NC(N)=O)Cc2cc(NC(=O)OCC3CC3)cc(Oc3cccc(C(F)(F)F)n3)c21 (stereo not drawn) ? > 5.52

Which measured pIC50 value corresponds to Cc1ccc2c(c1Oc1cc(F)ccc1Cl)N(C)C(=O)C1(NC(N)=O)CC21 (stereo not drawn) ? 4.52 to 5.52
